molecular target: Thrombin (bovine) (Bos taurus); construct: Thrombin (bovine); experiment: Enzyme kinetic determination of Ki with chromogenic substrate, thrombin; type: biochemical
Kindly supply the reported pKi values for the records listed here.
Please note pKi is a logarithmic value: minus log10 of concentration in mol/L. Answer with that number alone.

Sample `NCc1ccc(Cl)cc1CNC(=O)[C@@H]1CCCN1C(=O)[C@@H](CCc1cccc[n+]1[O-])NCC(=O)O` ; pKi observed: 7.76

Sample NCc1ccc(Cl)cc1CNC(=O)CNC(=O)C(CCc1cccc[n+]1[O-])NS(=O)(=O)CC(=O)O (centres unmarked) ; pKi observed: 5.08

Sample `NCc1ccc(Cl)cc1CNC(=O)[C@@H]1CCCN1C(=O)[C@@H](CCc1cccc[n+]1[O-])NS(=O)(=O)CC(=O)O` ; pKi observed: 7.66

Sample NCc1ccc(Cl)cc1CNC(=O)[C@H](CCC(=O)O)NC(=O)C(CCc1cccc[n+]1[O-])NS(=O)(=O)Cc1ccccc1 (some centres unmarked) ; pKi observed: 4.69

Sample CCCS(=O)(=O)NC(CCc1cccc[n+]1[O-])C(=O)NCC(=O)NCc1cc(Cl)ccc1CN (centres unmarked) ; pKi observed: 5.58

Sample CC(C)OC(=O)CS(=O)(=O)NC(CCc1cccc[n+]1[O-])C(=O)NCC(=O)NCc1cc(Cl)ccc1CN (centres unmarked) ; pKi observed: 5.80

Sample NCc1ccc(Cl)cc1CNC(=O)CNC(=O)C(CCc1cccc[n+]1[O-])NS(=O)(=O)Cc1ccc(CC(=O)O)cc1 (centres unmarked) ; pKi observed: 6.03

Sample `C[C@H](NC(=O)[C@@H](CCc1cccc[n+]1[O-])NS(=O)(=O)Cc1ccccc1)C(=O)NCc1cc(Cl)ccc1CN` ; pKi observed: 6.77

Sample `NCc1ccc(Cl)cc1CNC(=O)CNC(=O)[C@@H](CCc1cccc[n+]1[O-])NS(=O)(=O)Cc1ccccc1` ; pKi observed: 6.77

Sample NCc1ccc(Cl)cc1CNC(=O)[C@H](CO)NC(=O)C(CCc1ccccn1)NS(=O)(=O)Cc1ccccc1 (some centres unmarked) ; pKi observed: 6.59

Sample COC(=O)Cc1ccc(CS(=O)(=O)NC(CCc2cccc[n+]2[O-])C(=O)NCC(=O)NCc2cc(Cl)ccc2CN)cc1 (centres unmarked) ; pKi observed: 6.00
